# test-target: Recombinant STAT6 protein (STAT6 (W123-T658)) (Homo sapiens, UniProt P42226)
# Construct: Recombinant STAT6 protein (STAT6 (W123-T658))
# experiment: STAT6 Fluorescence Polarization (FP) Assay
# Assay type: binding
# assay-setup: STAT6 (W123-T658) 250 nM, probe 5-FAM-Ap[…]-NH2 2 nM, 45-minute incubation; read-out: STAT6 (FP assay IC50 class)
# Description: STAT6 Fluorescence Polarization (FP) Assay An FP assay was developed to determine IC50 values for test substances. […] Reaction components were mixed, and FP was measured after 45-minute incubation at room temperature using a Tecan Spark multimode plate reader. FP signal (mP) was plotted against the log concentration of the test substances and IC50 values were calculated by nonlinear regression analysis using GraphPad Prism software. […]
pIC50: −log10 of the molar value.
For each entry below, report its pIC50 value.

I am curious: what pIC50 value has been reported for O=C(N[C@H]1CCCC[C@H]2CC[C@@H](C(=O)N3CCCC34CC4)N2C1=O)c1cc2cc(C(F)(F)P(=O)(O)O)ccc2s1 [Compound 786] ?
5.52 to 6.52

Repeat with CCOc1cc(C2CN(C(=O)[C@@H]3CC[C@@H]4CCC[C@H](NC(=O)c5cc6cc([C@@H](F)P(=O)(O)O)ccc6s5)C(=O)N43)C2)ccn1 (single isomer, unassigned) [Compound 709]
4.52 to 5.52

Further, for N#C[C@H]1[C@H](c2ccccc2)CN(C(=O)[C@@H]2CC[C@@H]3CCC[C@H](NC(=O)c4cc5cc([C@H](F)P(=O)(O)O)ccc5s4)C(=O)N32)C12CC2 (single isomer, unassigned) [Compound 916] ?
≥ 6.52

Again, but for Cc1nccnc1C1CN(C(=O)[C@@H]2CC[C@@H]3CCC[C@H](NC(=O)c4cc5cc(CP(=O)(O)O)ccc5s4)C(=O)N32)C1 [Compound 649]
4.52 to 5.52

What about O=C(N[C@H]1CCCC[C@H]2CC[C@@H](C(=O)N3CCC(c4n[nH]cc4F)CC3)N2C1=O)c1cc2cc(C(F)P(=O)(O)O)ccc2s1 (some centres unmarked) [Compound 587] ?
4.52 to 5.52

Consider next the compound N#C[C@@H]1CN(C(=O)[C@@H]2CC[C@@H]3CCC[C@H](NC(=O)c4cc5cc(C(F)P(=O)(O)O)ccc5s4)C(=O)N32)C[C@H]1c1ccccc1 (single isomer, unassigned) [Compound 232] in the same way.
5.52 to 6.52

Moving on to the next compound: O=C(N[C@H]1CCC[C@H]2CC[C@@H](C(=O)N3CCC(c4n[nH]cc4F)CC3)N2C1=O)c1cc2cc(C(F)P(=O)(O)O)ccc2s1 (some centres unmarked) [Compound 591]
4.52 to 5.52

Please give the result for CC1(C)C[C@@H](c2ccccc2)CN1C(=O)[C@@H]1CC[C@@H]2CCCC[C@H](NC(=O)c3cc4cc(C(F)(F)P(=O)(O)O)ccc4s3)C(=O)N21 [Compound 814] too.
5.52 to 6.52

Now try O=C(N[C@H]1CCC[C@H]2CC[C@@H](C(=O)N3CC(c4cnccc4Oc4ccccc4)C3)N2C1=O)c1cc2cc(C(F)P(=O)(O)O)ccc2s1 (some centres unmarked) [Compound 699] .
4.52 to 5.52

Another compound to look at: Cn1cc(C2CN(C(=O)[C@@H]3CC[C@@H]4CCC[C@H](NC(=O)c5cc6cc(C(F)P(=O)(O)O)ccc6s5)C(=O)N43)C2)cn1 (some centres unmarked) [Compound 716]
4.52 to 5.52

Follow-up entry: COC1(c2nccn2C)CN(C(=O)[C@@H]2CC[C@@H]3CCC4(CC4)C[C@H](NC(=O)c4cc5cc(C(F)(F)P(=O)(O)O)ccc5s4)C(=O)N32)C1 [Compound 768]
4.52 to 5.52

###

So I've got a bunch of compounds here, and I need their IC50 values.
# test-target: pY641-STAT6 in PBMC (Homo sapiens)
# Construct: Cryopreserved Peripheral Blood Mononuclear Cells (PBMC) are from AllCells; host or cells: cryopreserved PBMC
# experiment: MSD-pSTAT-PBMC Assay (pSTAT6, IL-4 stimulated)
# Assay type: cell-based
# assay-setup: PBMC, compound 3 hrs, then 1 ng/mL IL-4 for 10 min; Table 1114; read-out: pSTAT6

For `CC(C)(C)C(=O)OCOP(=O)(OCOC(=O)C(C)(C)C)C(F)(F)c1ccc2sc(C(=O)N[C@H]3CCC[C@H]4CCC[C@@H](C(=O)N5CC(n6ccnc6)C5)N4C3=O)cc2c1` , what is its reported IC50?
> 3 µM

Here is the next compound: CC(C)CC(=O)SCCOP(=O)(OCCSC(=O)CC(C)C)C(F)(F)c1ccc2sc(C(=O)N[C@H]3CCCC(C)[C@H]4CC[C@@H](C(=O)N5C[C@H](c6cc[nH]c(=O)c6)[C@@H](C#N)C5)N4C3=O)cc2c1 (single isomer, unassigned)
0.1 to 1 µM

Field entry: `CC(C)OC(=O)OCOP(=O)(OCOC(=O)OC(C)C)C(F)(F)c1ccc2sc(C(=O)N[C@H]3CCC[C@H]4CC[C@@H](C(=O)N5CC(c6cccnc6)C5)N4C3=O)cc2c1`
> 3 µM

Another: CC(C)(C)C(=O)OCOP(=O)(OCOC(=O)C(C)(C)C)C(F)(F)c1ccc2sc(C(=O)N[C@H]3C[C@@H](O)CC[C@H]4CC[C@@H](C(=O)N5C[C@H](c6ccccc6)[C@@H](C#N)C5)N4C3=O)cc2c1 (single isomer, unassigned)
< 0.1 µM

###

# test-target: Recombinant STAT6 protein (STAT6 (W123-T658)) (Homo sapiens)
# Construct: Recombinant STAT6 protein (STAT6 (W123-T658))
# Sequence (P42226 123-658): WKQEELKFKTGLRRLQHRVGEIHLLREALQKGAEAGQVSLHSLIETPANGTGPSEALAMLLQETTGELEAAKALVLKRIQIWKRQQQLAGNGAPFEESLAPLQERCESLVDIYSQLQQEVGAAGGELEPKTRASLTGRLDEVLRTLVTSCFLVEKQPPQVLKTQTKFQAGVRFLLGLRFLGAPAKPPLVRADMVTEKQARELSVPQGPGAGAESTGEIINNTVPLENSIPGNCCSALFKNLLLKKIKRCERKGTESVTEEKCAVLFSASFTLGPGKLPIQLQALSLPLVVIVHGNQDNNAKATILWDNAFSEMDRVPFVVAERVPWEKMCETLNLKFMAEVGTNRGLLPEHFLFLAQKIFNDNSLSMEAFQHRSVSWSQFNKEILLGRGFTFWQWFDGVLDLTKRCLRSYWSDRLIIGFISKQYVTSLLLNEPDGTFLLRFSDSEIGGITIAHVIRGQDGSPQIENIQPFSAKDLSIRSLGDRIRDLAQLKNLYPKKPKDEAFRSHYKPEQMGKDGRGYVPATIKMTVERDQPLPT
# experiment: STAT6 Fluorescence Polarization (FP) Assay
# Format: binding
# assay-setup: STAT6 (W123-T658) 250 nM, probe 5-FAM-Ap[…]-NH2 2 nM, 45-minute incubation; read-out: STAT6 (FP assay IC50 class)
Kindly state IC50 for each of the entries shown.

Field request: IC50 | item: N#CC1CN(C(=O)[C@@H]2C[C@@H](O)[C@@H]3C/C=C\C[C@H](NC(=O)c4cc5cc(C(F)(F)P(=O)(O)O)ccc5s4)C(=O)N23)CC1c1ccccc1 (mixture of isomers) [Compound 729]
≤ 0.3 µM

Please do the same for CCc1ccncc1C1CN(C(=O)[C@@H]2CC[C@@H]3CCC[C@H](NC(=O)c4cc5cc(CP(=O)(O)O)ccc5s4)C(=O)N32)C1 [Compound 503] as well.
3 to 30 µM

What would you report for COc1cncc(C2CN(C(=O)[C@@H]3CC[C@@H]4CCC[C@H](NC(=O)c5cc6cc(CP(=O)(O)O)ccc6s5)C(=O)N43)C2)c1C [Compound 506] ?
3 to 30 µM

# iterate: N#CC1CN(C(=O)[C@@H]2CC[C@@H]3CC[C@H](NC(=O)c4cc5cc(C(F)(F)P(=O)(O)O)ccc5s4)C(=O)N32)C[C@@H]1c1ccccc1 (relative stereo) [Compound 733]
0.3 to 3 µM

Please answer likewise for O=C(N[C@H]1CCCC[C@H]2CC[C@@H](C(=O)N3CCC(c4ccccc4F)C3)N2C1=O)c1cc2cc(C(F)P(=O)(O)O)ccc2s1 (some centres unmarked) [Compound 563]
0.3 to 3 µM

Another molecule: COCCOC1(c2ccccn2)CN(C(=O)[C@@H]2CC[C@@H]3CCCC[C@H](NC(=O)c4cc5cc(C(F)P(=O)(O)O)ccc5s4)C(=O)N32)C1 (some centres unmarked) [Compound 615]
3 to 30 µM

Here is the next molecule: N#Cc1cc(C2CN(C(=O)[C@@H]3CC[C@@H]4CCC[C@H](NC(=O)c5cc6cc(C(F)P(=O)(O)O)ccc6s5)C(=O)N43)C2)ccn1 (some centres unmarked) [Compound 918]
3 to 30 µM

Also O=C(N[C@H]1CCCC[C@H]2CC[C@@H](C(=O)N3CCC(c4cccnc4)C3)N2C1=O)c1ccc2ccc(CP(=O)(O)O)cc2c1 (some centres unmarked) [Compound 217] ?
3 to 30 µM

Likewise for O=C(N[C@H]1CCCC[C@H]2CC[C@@H](C(=O)N3C[C@H](c4cccnc4)CC34CC4)N2C1=O)c1cc2cc([C@H](F)P(=O)(O)O)ccc2s1 (single isomer, unassigned) [Compound 911] ?
≤ 0.3 µM

Input O=C(N[C@H]1CCCC[C@H]2CC[C@@H](C(=O)N3CCC(c4ccn(C5CC5)c(=O)c4)C3)N2C1=O)c1ccc2ccc(C(F)P(=O)(O)O)cc2c1 (some centres unmarked) [Compound 906]
0.3 to 3 µM

Again, but for C[C@H]1C[C@H]2CC[C@@H](C(=O)N3CC(c4cnccc4N(C)C)C3)N2C(=O)[C@@H](NC(=O)c2cc3cc([C@H](F)P(=O)(O)O)ccc3s2)C1 [Compound 736]
3 to 30 µM
